Origin of measurements: patent US7179800B2

Target: CB2 receptor (Homo sapiens)
Construct: expressed in transfected cells; host or cells: CHO cells, G418-selected transfected line
Assay: CB2 binding procedure: displacement of [3H]CP-55,940 from membranes of transfected CHO cells
Conditions: CB1 Ki divided by CB2 Ki
endpoint_name: CB1/CB2 (ratio of Ki)
The reply should be a number, written without any unit.

Study these solved cases before continuing.
molecule	CB1/CB2 (ratio of Ki)
CCCCCCC(C)(C)c1cc(OC)c(C2(O)CCCC(C)(C)C2)c(OC)c1 (centres unmarked) [O-2068]	47
CCCCCCC(C)(C)c1cc(OC)c(C2(O)CCC(=O)CC2)c(OC)c1 [O-2115]	13
CCCCCCC(C)(C)c1cc(O)c(C2CCCCC2C)c(O)c1 (centres unmarked) [O-1658]	16
CCCCCCC(C)(C)c1cc(OC)c(C2=CCC(=O)CC2)c(OC)c1 [O-2114]	5

Next item in the queue.
Lookup: Provide the documented CB1/CB2 (ratio of Ki) with CB2 receptor (Homo sapiens) as the system for CCCCCCC(C)(C)c1cc(O)c([C@H]2CCCC(C)C2)c(O)c1 (single isomer, unassigned) [O-1826]
Found: 50

---

Biological target: CB1 receptor (Rattus norvegicus, UniProt P20272)
Sequence (P20272 whole entry): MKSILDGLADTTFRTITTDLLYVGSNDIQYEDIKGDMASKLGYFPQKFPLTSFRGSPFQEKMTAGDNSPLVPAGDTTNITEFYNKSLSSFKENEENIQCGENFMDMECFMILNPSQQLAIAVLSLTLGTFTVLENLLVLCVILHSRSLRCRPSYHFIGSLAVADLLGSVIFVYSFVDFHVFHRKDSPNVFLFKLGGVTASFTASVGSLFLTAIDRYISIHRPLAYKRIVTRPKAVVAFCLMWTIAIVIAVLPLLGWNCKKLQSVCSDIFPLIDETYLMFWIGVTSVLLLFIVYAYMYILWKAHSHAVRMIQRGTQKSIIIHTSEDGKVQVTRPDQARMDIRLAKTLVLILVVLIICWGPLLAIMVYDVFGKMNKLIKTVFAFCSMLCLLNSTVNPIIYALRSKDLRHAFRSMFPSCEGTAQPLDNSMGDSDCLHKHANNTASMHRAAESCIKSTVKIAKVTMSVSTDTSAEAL
Assay: CB1 binding procedure: displacement of [3H]CP 55,940 from rat whole-brain P2 membranes
Set-up: whole brain was homogenized and centrifuged; from tissue; host or cells: rat whole brain, P2 membrane fraction
Settings: Ki (nM) CB1, means ± SEM; [3H]CP 55,940, rat brain membranes
endpoint_name: Ki (nM)
API: value field is a number in nM; no unit string.

Lookup: // query Ki value for entry CCCCCCC(C)(C)c1cc(O)c(C2CCC(c3ccccc3)CC2)c(O)c1 (stereo not shown)
Found: 144

---

Biological target: CB2 receptor (Homo sapiens, UniProt P34972)
Construct: expressed in transfected cells; host or cells: CHO cells, G418-selected transfected line
Sequence (P34972 whole entry): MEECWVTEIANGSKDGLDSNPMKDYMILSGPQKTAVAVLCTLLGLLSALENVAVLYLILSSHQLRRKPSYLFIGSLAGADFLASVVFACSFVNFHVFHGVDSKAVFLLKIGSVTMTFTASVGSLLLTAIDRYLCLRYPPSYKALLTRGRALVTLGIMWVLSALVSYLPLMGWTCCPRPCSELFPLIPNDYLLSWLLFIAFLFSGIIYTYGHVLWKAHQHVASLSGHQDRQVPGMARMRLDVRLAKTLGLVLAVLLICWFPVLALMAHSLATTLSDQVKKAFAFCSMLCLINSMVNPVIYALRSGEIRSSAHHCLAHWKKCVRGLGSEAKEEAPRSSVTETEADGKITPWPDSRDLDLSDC
Experiment: CB2 binding procedure: displacement of [3H]CP-55,940 from membranes of transfected CHO cells
Conditions: means ± SEM; [3H]CP-55,940, transfected CHO cell membranes; read-out: Ki (nM) CB2
endpoint_name: Ki (nM)
API: value field is a number in nM; no unit string.

Lookup: // query Ki value for entry CCCCCCC(C)(C)c1cc(O)c(C2CCSCC2)c(O)c1 [O-1425]
Found: 12

Lookup: // query Ki value for entry CCCCCCC(C)(C)c1cc(OC)c(C2(O)CCC(O)CC2)c(OC)c1 (single isomer, unassigned) [O-2116A]
Found: 190

---

Below is a list of entries, each paired with its recorded fold decrease in CB1 affinity value.
Biological target: CB1 receptor (Rattus norvegicus)
Assay: CB1 binding procedure: displacement of [3H]CP 55,940 from rat whole-brain P2 membranes
Parameters: whole brain was homogenized and centrifuged; from tissue; host or cells: rat whole brain, P2 membrane fraction
Details: relative to the comparator analog

Study these solved cases before continuing.
compound	data_value
CCCCCCc1ccc(O)c(C2CCCCC2)c1O	865 fold
CCCCCCC(C)(C)c1cc(O)c(C2CCC(c3ccccc3)CC2)c(O)c1 (stereo not shown)	3 fold

Next item in the queue.
Lookup: // query fold decrease in CB1 affinity value for entry "CCCCCCC(C)(C)c1cc(O)c(C2CCSCC2)c(O)c1"
Found: 14 fold

---

Target: CB2 receptor (Homo sapiens)
Construct: expressed in transfected cells; host or cells: CHO cells, G418-selected transfected line
Test: CB2 binding procedure: displacement of [3H]CP-55,940 from membranes of transfected CHO cells
Details: means ± SEM; [3H]CP-55,940, transfected CHO cell membranes; read-out: Ki (nM) CB2
Procedure: Membranes for CB2 binding were obtained from CHO cells. […] Protein concentrations were determined by the method of Bradford (1976) using Bio-Rad Protein Assay (Bio-Rad, Richmond, Calif.) and BSA standards (fatty acid free, Sigma Chemical Co., St. Louis, Mo.). […]
endpoint_name: Ki (nM)
API: value field is a number in nM; no unit string.

Lookup: // query Ki value for entry CCCCCCC(C)(C)c1cc(OC)c(C2(O)CC(C)CC(O)C2)c(OC)c1 (stereo not drawn)
Found: 101
